Measured values drawn from ChEMBL document CHEMBL1157539 for this set.

System: HepG2
ASSAY_SUMMARY: GSK_TCMDC: Percent inhibition of human HepG2 cell line. Test compounds present at 10uM.
Format: functional
VALUE_KIND: Inhibition (%)
Value expressed in %; do not type the unit.

Exercise: Please look at this molecule and report its Inhibition: "Cc1cc(N[C@@H](CC(C)C)C(=O)Nc2ccccc2)nc(NCCc2ccccc2)n1.O=C(O)C(F)(F)F"
Solution: 0

Exercise: Please look at this molecule and report its Inhibition: "CN(C)CCNCc1ccc(-c2ccc3c(Nc4ccc(Cl)cc4F)ccnc3c2)o1"
Solution: 14

Exercise: Please look at this molecule and report its Inhibition: "COc1cc(C(=O)Nc2cccc(-c3cn4ccc(C)cc4n3)c2)cc(OC)c1OC"
Solution: 0

Exercise: Please look at this molecule and report its Inhibition: CCCC(CNCc1cccc(C)c1)CNc1cc(=O)c2ccccc2[nH]1 (stereo not drawn)
Solution: 0

Exercise: Please look at this molecule and report its Inhibition: "O=C(Nc1ccc(C(=O)N(Cc2ccc3c(c2)OCO3)C2CCCC2)cc1)c1cccs1"
Solution: 14

Exercise: Please look at this molecule and report its Inhibition: "CC(C)N1CCC(N(Cc2ccc(-c3ccc(Cl)cc3)cc2)C(=O)Cn2c(CCc3cccc(F)c3F)cc(=O)c3ccccc32)CC1.O=C(O)C(O)C(O)C(=O)O"
Solution: 62

Exercise: Please look at this molecule and report its Inhibition: "CCCCOc1cc(CNCCCCCCNCc2cc(OCCCC)cc3ccccc23)c2ccccc2c1.CS(=O)(=O)O"
Solution: 99

Exercise: Please look at this molecule and report its Inhibition: "CN(C)CCCOc1ccc(CN2CC[C@H](NC(=O)c3ccc(Cl)c(Cl)c3)C2)cc1Br.O=C(O)C(F)(F)F"
Solution: 11

Exercise: Please look at this molecule and report its Inhibition: O=C(Nc1cccc(C(F)(F)F)c1)c1cccc(S(=O)(=O)NCC2CCCN2CC2CCCCC2)c1.O=C(O)C(F)(F)F (stereo not drawn)
Solution: 6

Exercise: Please look at this molecule and report its Inhibition: "CCCNCc1ccc(-c2ccc(CN(CCOC)C(=O)c3ccco3)cc2)nc1.O=C(O)C(F)(F)F"
Solution: 1

Exercise: Please look at this molecule and report its Inhibition: "CC(=O)Nc1cccc(-c2cnc(N)c3cc(-c4ccc5c(c4)OCO5)ccc23)c1"
Solution: 100

Exercise: Please look at this molecule and report its Inhibition: "COc1ccc(-c2nccc(NC(=N)NCc3ccccc3)n2)cc1"
Solution: 27

Exercise: Please look at this molecule and report its Inhibition: "Cl.N=C(N)c1cccc(OCCCOc2cccc(NC(=O)Nc3ccc([N+](=O)[O-])cc3)c2)c1"
Solution: 16
